# target.entity: T1, Bcl-XL (UniProt Q07817 1-209)
# T1 construct: also called anti-apoptotic member Bcl-XL
# test.summary: fluorescence polarisation competition; 15 nM Bak BH3 carboxyfluorescein, 100 nM Bcl-XL
measured.attribute: log10 of Ki (log10 of the value in µM)

binder="VMTQEVGQLLQDMGDDVYQQYRSL (also called peptide b)) [Kiaa 1578 peptide]" experimental_value=1.51
binder="MATVIHNPLKALGDQFYKEAIEHC (also called peptide a)) [Cerd4 peptide]" experimental_value=0.95
binder="DMWDTRIAKLRVSADSFVRQQEA (also called peptide d)) [Loc 51569 peptide]" experimental_value=0.90
binder="RLKHSCLLALKRAADLLGQRSSST (also called peptide c)) [Genematch peptide]" experimental_value=0.00
binder="VATRRLSGFLRTLADRLEGTKELL (also called peptide e)) [Mina53 peptide]" experimental_value=1.30

Numbers sourced from patent US20090325883A1.
